System: 276233-004-R-J1-PDC spheroids with HUVEC/MSC, viability
Assay: Anticancer human tumor 276233-004-R-J1-PDC patient-derived colon adenocarcinoma cell line growth inhibition [TAK]
Conditions: second compound 0.3 µM; first compound 0.0316 µM; stronger effect = lower value
METRIC: viability, T/C (%)
Answer in %, number only, no unit symbol.

Look at this molecule and give its reported viability, T/C. COC1CC2CCC(C)C(O)(O2)C(=O)C(=O)N2CCCCC2C(=O)OC(C(C)CC2CCC(OCCO)C(OC)C2)CC(=O)C(C)C=C(C)C(O)C(OC)C(=O)C(C)CC(C)C=CC=CC=C1C (stereo unspecified) + CC(C)NCC(C(=O)N1CCN(c2ncnc3c2C(C)CC3O)CC1)c1ccc(Cl)cc1
67.5

So what's the measured viability, T/C for this one? COc1c(OCCCN2CCOCC2)ccc2c3n(c(=NC(=O)c4cnc(N)nc4)nc12)CCN3 + CC(C)NCC(C(=O)N1CCN(c2ncnc3c2C(C)CC3O)CC1)c1ccc(Cl)cc1
49.7

Reported viability, T/C, molecule Cc1nc(NC(=O)N2CCCC2C(N)=O)sc1-c1ccnc(C(C)(C)C(F)(F)F)c1 (stereo unspecified) + CC(C)NCC(C(=O)N1CCN(c2ncnc3c2C(C)CC3O)CC1)c1ccc(Cl)cc1 : ____
95.3

So what's the measured viability, T/C for this one? CC(C)n1nc(-c2ccc3oc(N)nc3c2)c2c(N)ncnc21 + CC(C)NCC(C(=O)N1CCN(c2ncnc3c2C(C)CC3O)CC1)c1ccc(Cl)cc1
78.2

GET /values?readout=viability, T/C&item= CC(C)CC(NC(=O)CNC(=O)c1cc(Cl)ccc1Cl)B1OC(=O)CC(CC(=O)O)(C(=O)O)O1 (stereo unspecified) + CC(C)NCC(C(=O)N1CCN(c2ncnc3c2C(C)CC3O)CC1)c1ccc(Cl)cc1
81.2

Request the reported viability, T/C associated with CC(C)(C)c1nc(-c2cccc(NS(=O)(=O)c3c(F)cccc3F)c2F)c(-c2ccnc(N)n2)s1 + CC(C)NCC(C(=O)N1CCN(c2ncnc3c2C(C)CC3O)CC1)c1ccc(Cl)cc1
109

----------
What viability, T/C was measured for each of the following?
System: 276233-004-R-J1-PDC spheroids with HUVEC/MSC, viability
Test: Anticancer human tumor 276233-004-R-J1-PDC cell line growth inhibition [TAK];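 further: spheroids exposed to drugs for seven days before the viability read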
Conditions: second compound 3 µM; first compound 0.316 µM; stronger effect = lower value
Experimental: Combinatorial screen of targeted agents with TAK-243 and ipatasertib in multi-cell type tumor spheroids […] Compounds. […] If the clinical Cmax for an agent had not been determined, the highest concentration tested was 10 microM. NCI60 Cell Culture. […] The optimal seeding densities for each of the cell lines at each time point assessed were determined prior to performing the concentration response studies. […]
All answers are understood in %, so give the number only.

Report viability, T/C for Cc1nc(NC(=O)N2CCCC2C(N)=O)sc1-c1ccnc(C(C)(C)C(F)(F)F)c1 (centres undefined) + CC(C)NCC(C(=O)N1CCN(c2ncnc3c2C(C)CC3O)CC1)c1ccc(Cl)cc1 please.
67.5

Report viability, T/C for COc1c(OCCCN2CCOCC2)ccc2c3n(c(=NC(=O)c4cnc(N)nc4)nc12)CCN3 + CC(C)NCC(C(=O)N1CCN(c2ncnc3c2C(C)CC3O)CC1)c1ccc(Cl)cc1 please.
41.5

Which viability, T/C is reported for this compound? CCCS(=O)(=O)Nc1ccc(F)c(C(=O)c2c[nH]c3ncc(-c4ccc(Cl)cc4)cc23)c1F + CC(C)NCC(C(=O)N1CCN(c2ncnc3c2C(C)CC3O)CC1)c1ccc(Cl)cc1
72.7

I'd like to know its viability, T/C. The compound in question is CC(C)(C)c1nc(-c2cccc(NS(=O)(=O)c3c(F)cccc3F)c2F)c(-c2ccnc(N)n2)s1 + CC(C)NCC(C(=O)N1CCN(c2ncnc3c2C(C)CC3O)CC1)c1ccc(Cl)cc1
91.1
